assay info: Bi-directional Caco-2 cell permeability
Format: in vitro ADME
run conditions: human, Caco-2; 50 μM, 2 h, n = 3
observable: Papp B→A at 2 h, 50 µM (×10⁻⁶ cm/s)
Kindly provide the numeric value in ×10⁻⁶ cm/s only, without the unit symbol.

Given the compound CC(C)=CCc1cc([C@@H]2CC(=O)c3ccc(O)c(CC=C(C)C)c3O2)cc(CC=C(C)C)c1O , what is its reported Papp B→A at 2 h, 50 µM?
0.152

----------
target of assay: CYP2C9 (Homo sapiens)
Construct: tissue Corning Life Sciences; host or cells: pooled human liver microsomes, 150 donors
assay info: Determination of Ki and inhibition type on CYP2C9 activity in human liver microsomes
Type: biochemical
run conditions: human liver microsomes, tolbutamide 50, 100, and 150 µM, n = 3; read-out: Ki values, CYP2C9 probe tolbutamide
observable: pKi
Worth noting: pKi values are minus log10 of concentrations stated in mol/L.

What is its pKi for CYP2C9 (Homo sapiens)? Entry: CC(C)=CCc1cc([C@@H]2CC(=O)c3ccc(O)c(CC=C(C)C)c3O2)cc(CC=C(C)C)c1O
6.30

----------
assay info: Bi-directional Caco-2 cell permeability
Format: in vitro ADME
run conditions: human, Caco-2; 10 μM, 2 h, n = 3
observable: Papp A→B at 2 h, 10 µM (×10⁻⁶ cm/s)
Kindly provide the numeric value in ×10⁻⁶ cm/s only, without the unit symbol.

Given the molecule CC(C)=CCc1cc([C@@H]2CC(=O)c3ccc(O)c(CC=C(C)C)c3O2)cc(CC=C(C)C)c1O [SPN, (‒)-Sophoranone] , what is its reported Papp A→B at 2 h, 10 µM?
0.115

----------
target of assay: CYP2A6 (Homo sapiens, UniProt P11509)
Construct: tissue Corning Life Sciences; host or cells: pooled human liver microsomes, 150 donors
Sequence (P11509 whole entry): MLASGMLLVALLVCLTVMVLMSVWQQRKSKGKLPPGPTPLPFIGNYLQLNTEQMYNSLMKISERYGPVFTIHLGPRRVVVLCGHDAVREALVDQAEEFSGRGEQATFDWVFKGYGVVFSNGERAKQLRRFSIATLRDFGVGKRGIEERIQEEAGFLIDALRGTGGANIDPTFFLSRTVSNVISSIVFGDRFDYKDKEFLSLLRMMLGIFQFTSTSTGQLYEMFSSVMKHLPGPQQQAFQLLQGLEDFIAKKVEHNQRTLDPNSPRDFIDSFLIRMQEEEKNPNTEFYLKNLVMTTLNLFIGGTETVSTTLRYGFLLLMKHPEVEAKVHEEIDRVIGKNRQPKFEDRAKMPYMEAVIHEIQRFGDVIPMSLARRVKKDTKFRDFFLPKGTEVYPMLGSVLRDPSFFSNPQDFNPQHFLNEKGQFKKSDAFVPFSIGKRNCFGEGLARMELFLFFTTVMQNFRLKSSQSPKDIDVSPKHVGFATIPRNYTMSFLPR
assay info: Reversible CYP2A6 inhibition, cocktail assay (coumarin 7-hydroxylase) in human liver microsomes
Format: biochemical
run conditions: human liver microsomes 0.1 mg/mL, cocktail assay, coumarin probe, n = 3; read-out: IC50 Values, CYP2A6
Protocol: The inhibitory effects of SPN on CYP1A2, CYP2A6, CYP2B6, CYP2C8, CYP2C9, CYP2C19, CYP2D6, CYP2E1, and CYP3A4 were evaluated in pooled human liver microsomes through the use of specific CYP probe substrates (cocktail assay), as previously described with a slight modification. Concentrations of each CYP probe in Table 1 were used close to their reported Km values. […]
observable: IC50

What is its IC50 for CYP2A6 (Homo sapiens, UniProt P11509)? Entry: CC(C)=CCc1cc([C@@H]2CC(=O)c3ccc(O)c(CC=C(C)C)c3O2)cc(CC=C(C)C)c1O [SPN, (‒)-Sophoranone]
> 50 µM

----------
assay info: Effects of SPN on the pharmacokinetics of diclofenac in rats
run conditions: male, Sprague-Dawley, rat, plasma, po, 2 mg/kg, AUC∞, rats, oral diclofenac 2 mg/kg, with oral SPN 75 mg/kg, n = 6
observable: AUC(0-inf) (ng·h/mL)
Kindly provide the numeric value in ng·h/mL only, without the unit symbol.

Given the compound O=C(O)Cc1ccccc1Nc1c(Cl)cc(O)cc1Cl [4′-hydroxydiclofenac] , what is its reported AUC(0-inf)?
1130

----------
assay info: Unbound fraction in human plasma (rapid equilibrium dialysis)
Type: in vitro ADME
run conditions: human, human plasma; 50 μM, 37 °C, 4 h, n = 3; read-out: free fraction in human plasma
observable: fraction unbound at 4 h, 50 µM

Given the compound CC(C)=CCc1cc([C@@H]2CC(=O)c3ccc(O)c(CC=C(C)C)c3O2)cc(CC=C(C)C)c1O [SPN, (‒)-Sophoranone] , what is its reported fraction unbound at 4 h, 50 µM?
0.000927

----------
target of assay: CYP1A2 (Homo sapiens, UniProt P05177)
Sequence (P05177 whole entry): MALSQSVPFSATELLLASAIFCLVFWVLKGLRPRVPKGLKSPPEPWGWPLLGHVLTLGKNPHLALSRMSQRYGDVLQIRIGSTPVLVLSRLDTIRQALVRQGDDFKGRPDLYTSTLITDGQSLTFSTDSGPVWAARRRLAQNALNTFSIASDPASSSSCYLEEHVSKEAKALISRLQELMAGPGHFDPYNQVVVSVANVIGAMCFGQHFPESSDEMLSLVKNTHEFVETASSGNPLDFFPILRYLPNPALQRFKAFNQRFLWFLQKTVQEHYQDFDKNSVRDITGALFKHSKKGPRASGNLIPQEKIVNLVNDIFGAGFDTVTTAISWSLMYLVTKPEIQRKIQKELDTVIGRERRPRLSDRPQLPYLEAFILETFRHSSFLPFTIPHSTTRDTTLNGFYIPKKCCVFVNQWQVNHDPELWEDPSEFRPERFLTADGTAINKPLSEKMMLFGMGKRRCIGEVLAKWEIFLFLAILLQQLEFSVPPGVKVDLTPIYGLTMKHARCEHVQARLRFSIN
pIC50: −log10 of the molar value.
observable: pIC50

Given the compound CC(C)=CCc1cc([C@@H]2CC(=O)c3ccc(O)c(CC=C(C)C)c3O2)cc(CC=C(C)C)c1O , what is its reported pIC50?
< 4.30

----------
target of assay: CYP2C9 (Homo sapiens, UniProt P11712)
Construct: tissue Corning Life Sciences; host or cells: pooled human liver microsomes, 150 donors
Sequence (P11712 whole entry): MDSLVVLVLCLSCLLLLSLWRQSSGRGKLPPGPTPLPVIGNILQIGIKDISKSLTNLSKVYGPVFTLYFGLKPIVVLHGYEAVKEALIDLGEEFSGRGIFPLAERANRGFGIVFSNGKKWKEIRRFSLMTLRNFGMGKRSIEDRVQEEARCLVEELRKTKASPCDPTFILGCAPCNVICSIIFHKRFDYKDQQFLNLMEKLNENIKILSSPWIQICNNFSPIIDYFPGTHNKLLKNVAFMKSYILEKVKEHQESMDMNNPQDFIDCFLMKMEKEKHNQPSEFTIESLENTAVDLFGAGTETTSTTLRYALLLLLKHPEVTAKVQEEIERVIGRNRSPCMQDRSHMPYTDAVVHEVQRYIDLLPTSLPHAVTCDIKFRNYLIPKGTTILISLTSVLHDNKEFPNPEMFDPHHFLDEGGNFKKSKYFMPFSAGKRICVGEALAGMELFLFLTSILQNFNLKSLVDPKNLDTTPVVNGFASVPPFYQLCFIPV
assay info: Reversible CYP2C9 inhibition, cocktail assay (tolbutamide 4-hydroxylase) in human liver microsomes
Format: biochemical
run conditions: human liver microsomes 0.1 mg/mL, tolbutamide probe, n = 3
observable: pIC50
Worth noting: pIC50 values are minus log10 of concentrations stated in mol/L.

Given the compound CC(C)=CCc1cc([C@@H]2CC(=O)c3ccc(O)c(CC=C(C)C)c3O2)cc(CC=C(C)C)c1O , what is its reported pIC50?
6.02

----------
assay info: Effects of SPN on the pharmacokinetics of diclofenac in rats
run conditions: male, Sprague-Dawley, rat, plasma, po, 2 mg/kg, Cmax, rats, oral diclofenac 2 mg/kg, with oral SPN 75 mg/kg, n = 6
observable: Cmax
// return the numeric value with its unit appended

Given the molecule O=C(O)Cc1ccccc1Nc1c(Cl)cc(O)cc1Cl [4′-hydroxydiclofenac] , what is its reported Cmax?
173 ng/mL

----------
assay info: Effects of SPN on the pharmacokinetics of diclofenac in rats
run conditions: male, Sprague-Dawley, rat, plasma, po, 2 mg/kg, AUCt, rats, oral diclofenac 2 mg/kg, with oral SPN 75 mg/kg, n = 6
observable: AUC(0-t) (ng·h/mL)
Kindly provide the numeric value in ng·h/mL only, without the unit symbol.

Given the molecule O=C(O)Cc1ccccc1Nc1c(Cl)cc(O)cc1Cl [4′-hydroxydiclofenac] , what is its reported AUC(0-t)?
742
